Counter-ions that a name gives are not always drawn.
Below, each of the molecules is paired with its reported melting point value.

{"columns": ["molecule", "melting point"],
 "data": [
  ["Cn1cc(C2=C(c3cccc(N4CCOCC4)c3)C(=O)NC2=O)c2ccccc21 (as salt: hydrochloride)", "205.3 to 212.6 °C"],
  ["CC(O)CCNc1ccc(C2=C(c3cn(C)c4ccccc34)C(=O)NC2=O)cc1 (stereo not shown)", "58 to 61.5 °C"],
  ["Cn1cc(C2=C(c3cccc(OC[C@H]4COC(C)(C)O4)c3)C(=O)NC2=O)c2ccccc21", "186.8 to 187.4 °C"]
]}

Supply measured melting point of CC(CO)Nc1cccc(C2=C(c3cn(C)c4ccccc34)C(=O)NC2=O)c1 (racemic) in your reply. 203.1 to 205.8 °C

====

- system: truncated form of recombinant rabbit GSK-3β enzyme (Oryctolagus cuniculus)
- Construct: The construct was cloned in pGEX-3X vector; fused on or other part: GST tag at the N-terminus, inferred from the pGEX-3X vector and the glutathione sepharose 4B purification with glutathione elution
- Sequence (G1T8E2 1-432): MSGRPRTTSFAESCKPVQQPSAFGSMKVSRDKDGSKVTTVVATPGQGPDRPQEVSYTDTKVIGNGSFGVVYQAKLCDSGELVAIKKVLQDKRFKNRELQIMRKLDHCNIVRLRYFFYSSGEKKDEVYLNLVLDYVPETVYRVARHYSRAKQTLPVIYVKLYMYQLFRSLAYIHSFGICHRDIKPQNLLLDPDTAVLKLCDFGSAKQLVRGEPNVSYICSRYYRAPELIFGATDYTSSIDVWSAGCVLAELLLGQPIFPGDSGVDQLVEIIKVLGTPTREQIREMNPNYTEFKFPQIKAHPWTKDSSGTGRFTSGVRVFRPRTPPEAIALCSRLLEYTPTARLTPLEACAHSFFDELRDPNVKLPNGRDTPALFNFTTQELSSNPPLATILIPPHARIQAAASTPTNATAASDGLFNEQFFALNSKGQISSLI
- protocol: Inhibition of Glycogen Synthase Kinase-3β, in vitro assay
- condition parameters: GSK-3β inhibition, 40 μM ATP, CREB-peptide substrate, 30° C. for 1 h
Labelling field: enter true if recorded IC50 is less than 100 nM. Enter false if it equals or exceeds that cut-off.

{"columns": ["compound", "class label"],
 "data": [
  ["Cn1cc(C2=C(c3cccc(OCCCN)c3)C(=O)NC2=O)c2ccccc21", "true"],
  ["Cn1cc(C2=C(c3ccc(OC[C@@H]4COC(C)(C)O4)cc3)C(=O)NC2=O)c2ccccc21", "false"],
  ["O=C1NC(=O)C(c2c[nH]c3ccccc23)=C1c1cccc(OCCN2CCOCC2)c1", "false"]
]}

Would you kindly verify if IC50 of Cn1cc(C2=C(c3cccc(OCCN)c3)C(=O)NC2=O)c2ccccc21 is strictly less than 100 nM? true

Would you kindly verify if IC50 of Cn1cc(C2=C(c3ccccc3OCC(O)CO)C(=O)NC2=O)c2ccccc21 (stereo not drawn) is strictly less than 100 nM? false

Would you kindly verify if IC50 of Cn1cc(C2=C(c3cccc(OCCN4CCOCC4)c3)C(=O)NC2=O)c2ccccc21 is strictly less than 100 nM? true

====

measure name: melting point

Examples from the recorded data:
{"columns": ["molecule", "melting point"],
 "data": [
  ["Cn1cc(C2=C(c3cccc(OCCN4CCOCC4)c3)C(=O)NC2=O)c2ccccc21", "197.7 to 199 °C"],
  ["Cn1cc(C2=C(c3ccccc3OCC(O)CO)C(=O)NC2=O)c2ccccc21 (stereo not drawn)", "245 to 247.1 °C"],
  ["Cn1cc(C2=C(c3cccc(OCC(O)CO)c3)C(=O)NC2=O)c2ccccc21 (stereo in doubt)", "176.9 to 178.1 °C"],
  ["Cn1cc(C2=C(c3cccc(NCC(O)CO)c3)C(=O)NC2=O)c2ccccc21 (racemic)", "160 to 163.5 °C"],
  ["Cn1cc(C2=C(c3cccc(NC4COC(C)(C)OC4)c3)C(=O)NC2=O)c2ccccc21", "201 to 203 °C"]
]}

# input for lookup
Supply measured melting point of Cn1cc(C2=C(c3ccc(OCC(O)CO)cc3)C(=O)NC2=O)c2ccccc21 (stereo in doubt) in your reply. 220.3 to 222.7 °C
